System: envelope glycoprotein of Marburgvirus
Assay: Selectivity index, ratio of CC50 for human A549 cells to IC50 for inhibition of envelope glycoprotein in HIV pseudotyped Marburgvirus infected in human A549 cells assessed as reduction in virus entry
Format: toxicity, cell-based
Conditions: read-out: Ratio CC50/IC50
Catalogue of selectivity ratio values
API doc: respond with a numeric literal and nothing else, no unit.

As a guide, the following entries are already answered.
Cc1c(Cc2ccccc2)c(=O)oc2cc(OCC(O)CNCc3ccccc3)ccc12 (centres undefined) :: 45.5
COC(=O)c1ccc(Cc2c(C)c3ccc(OCC(O)CN4CCC(C(N)=O)CC4)cc3oc2=O)cc1 (centres undefined) :: 11
Cc1c(Cc2ccccc2)c(=O)oc2cc(OCC(O)CNc3nc4ccccc4[nH]3)ccc12 (centres undefined) :: 1
NC(=O)C1CCN(CC(O)COc2ccc3c(-c4ccccc4)c(Cc4ccccc4)c(=O)oc3c2)CC1 (centres undefined) :: 11.6
Cc1noc(C)c1-c1ccc(Cc2c(C)c3ccc(OCC(O)CN4CCC(C(N)=O)CC4)cc3oc2=O)cc1 (centres undefined) :: 11.4
Cc1c(Cc2ccccc2)c(=O)oc2cc(OCC(CN3CCC(C(N)=O)CC3)Oc3ccc([N+](=O)[O-])cc3)ccc12 (centres undefined) :: 11.5
Cc1c(Cc2ccc(F)cc2Cl)c(=O)oc2cc(OCC(O)CN3CCC(C(N)=O)CC3)ccc12 (centres undefined) :: 7.7
Cc1c(Cc2ccc(OC(F)(F)F)cc2)c(=O)oc2cc(OCC(O)CNCCc3ccncc3)ccc12 (centres undefined) :: 10.7

Tell me the measured selectivity ratio of Cc1cc(=O)oc2cc(OCC(O)CN3CCC(C(N)=O)CC3)ccc12 (centres undefined) , please. 12

###

System: envelope glycoprotein of Marburgvirus
Assay: Selectivity index, ratio of CC50 for human A549 cells to IC50 for inhibition of envelope glycoprotein in HIV pseudotyped Marburgvirus infected in human A549 cells assessed as reduction in virus entry
Assay type: toxicity, cell-based
Details: read-out: Ratio CC50/IC50
result-type: selectivity ratio
API doc: respond with a numeric literal and nothing else, no unit.

Cc1c(Cc2ccc(C(C)(C)C)cc2)c(=O)oc2cc(OCC(O)CN3CCC(C(N)=O)CC3)ccc12 (centres undefined) :: 2.5
Cc1c(Cc2ccc(OC(F)(F)F)cc2)c(=O)oc2cc(OC[C@H](O)CN3CCC(C(N)=O)CC3)ccc12 :: 36.3
Cc1c(Cc2ccc(-c3ccccc3)cc2)c(=O)oc2cc(OCC(O)CNc3nccs3)ccc12 (centres undefined) :: 29.3

Lab note: next molecule to report on.
Tell me the measured selectivity ratio of Cc1c(Cc2ccc(Cl)cc2)c(=O)oc2cc(OCC(O)CN3CCC(C(N)=O)CC3)ccc12 (centres undefined) , please. 13.8

###

Tested on: envelope glycoprotein of Zaire Ebolavirus
Experiment: Selectivity index, ratio of CC50 for human A549 cells to IC50 for inhibition of envelope glycoprotein in HIV pseudotyped Zaire Ebolavirus infected in human A549 cells assessed as reduction in virus entry
Type: toxicity, cell-based
Details: read-out: Ratio CC50/IC50
I'd appreciate it if you marked entries satisfied when selectivity ratio is lower than 20 and not satisfied when it is not.

Consider the worked cases shown below.
Cc1c(Cc2ccc(-c3ccc(Cl)cc3)cc2)c(=O)oc2cc(OCC(O)CN3CCC(C(N)=O)CC3)ccc12 (stereo not drawn) :: not satisfied
Cc1c(Cc2ccc(-c3ccc(C=O)c(F)c3)cc2)c(=O)oc2cc(OCC(O)CN3CCC(C(N)=O)CC3)ccc12 (stereo not drawn) :: satisfied
Cc1c(Cc2ccccc2)c(=O)oc2cc(OCC(CN3CCC(C(N)=O)CC3)Oc3ccc([N+](=O)[O-])cc3)ccc12 (stereo not drawn) :: satisfied

Criterion: selectivity ratio strictly below 20. Is it met by Cc1c(Cc2ccc(OC(F)(F)F)cc2)c(=O)oc2cc(OCC(O)CNCCc3ccncc3)ccc12 (stereo not drawn) ? satisfied

Criterion: selectivity ratio strictly below 20. Is it met by `Cc1c(Cc2ccc(OC(F)(F)F)cc2)c(=O)oc2cc(OC[C@H](O)CN3CCC(C(N)=O)CC3)ccc12` ? not satisfied

Criterion: selectivity ratio strictly below 20. Is it met by Cc1c(Cc2ccccc2)c(=O)oc2cc(OCC(O)CNCc3cccs3)ccc12 (stereo not drawn) ? not satisfied

Criterion: selectivity ratio strictly below 20. Is it met by Cc1c(Cc2ccccc2)c(=O)oc2cc(OCC(CN3CCC(C(N)=O)CC3)Oc3ccccc3F)ccc12 (stereo not drawn) ? satisfied
